# test-system: B-Raf kinase (Homo sapiens)
# Construct: purchased Upstate Biotechnology
# Sequence (P15056 whole entry): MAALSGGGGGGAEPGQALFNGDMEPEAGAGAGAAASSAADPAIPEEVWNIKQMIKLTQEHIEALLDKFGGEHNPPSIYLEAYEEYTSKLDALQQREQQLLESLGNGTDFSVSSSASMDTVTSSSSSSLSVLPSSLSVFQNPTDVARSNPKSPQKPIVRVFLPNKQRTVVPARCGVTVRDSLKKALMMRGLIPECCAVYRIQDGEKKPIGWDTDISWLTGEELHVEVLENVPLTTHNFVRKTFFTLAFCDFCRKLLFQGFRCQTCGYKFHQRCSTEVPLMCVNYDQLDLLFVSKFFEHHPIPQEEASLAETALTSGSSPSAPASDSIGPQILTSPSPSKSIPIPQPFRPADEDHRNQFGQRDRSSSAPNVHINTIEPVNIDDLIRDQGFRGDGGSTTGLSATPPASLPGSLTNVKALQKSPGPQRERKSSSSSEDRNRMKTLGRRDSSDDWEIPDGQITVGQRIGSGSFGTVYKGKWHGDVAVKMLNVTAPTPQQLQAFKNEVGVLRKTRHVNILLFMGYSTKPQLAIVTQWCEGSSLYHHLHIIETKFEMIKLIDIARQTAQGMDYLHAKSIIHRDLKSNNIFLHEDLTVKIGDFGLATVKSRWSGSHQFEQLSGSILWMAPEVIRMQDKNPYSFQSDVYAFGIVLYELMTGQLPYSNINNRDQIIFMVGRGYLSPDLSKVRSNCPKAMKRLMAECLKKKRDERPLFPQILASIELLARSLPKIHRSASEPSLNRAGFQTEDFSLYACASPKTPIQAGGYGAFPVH
# method: B-Raf kinase assay ([33P] incorporation into MEK1(K97R))
# Assay type: biochemical
# particulars: class symbols; 8 μM ATP; read-out: IC50 against B-Raf kinase
pIC50: −log10 of the molar value.
metric: pIC50

Here are 5 molecules together with their reported answers.
{"columns": ["structure-smiles-string", "metric", "experimental-result"],
 "data": [
  ["CCCS(=O)(=O)Nc1ccc(F)c(Nc2ncnc3ccc(-c4ccncc4)cc23)c1F", "pIC50", "> 6.52"],
  ["CCCS(=O)(=O)Nc1ccc(F)c(Nc2ncnc3ccc(-c4cccc(N)n4)cc23)c1F", "pIC50", "6.00 to 6.52"],
  ["CCCS(=O)(=O)Nc1ccc(F)c(Nc2ncnc3ccc(-c4cncc(F)c4)cc23)c1F", "pIC50", "> 6.52"],
  ["CCCS(=O)(=O)Nc1ccc(F)c(Nc2ncnc3ccc(-c4cccnc4Cl)cc23)c1F", "pIC50", "> 6.52"],
  ["CCCS(=O)(=O)Nc1ccc(F)c(Nc2ccnc3ccc(-c4ccncc4)cc23)c1F", "pIC50", "> 6.52"]
]}

Provide pIC50 for all items below, preserving their order.
1. CCCS(=O)(=O)Nc1ccc(F)c(Nc2ncnc3ccc(-c4cnc(N(C)C)nc4)cc23)c1F
2. CCCS(=O)(=O)Nc1ccc(F)c(Nc2ncnc3ccc(-c4cccnc4F)cc23)c1F
3. CCCS(=O)(=O)Nc1ccc(F)c(Nc2ncnc3cc(OC)c(-c4ccncc4)cc23)c1F
4. CCCS(=O)(=O)Nc1ccc(F)c(Nc2ncnc3ccc(-c4cccnc4F)c(F)c23)c1F

6.00 to 6.52
> 6.52
5.00 to 6.00
6.00 to 6.52
